Values were extracted from patent US11434222B2.

Target: MAGL (Mus musculus, UniProt O35678)
Construct: brain proteomes were prepared and analyzed according to previously established methods; from tissue; host or cells: brain of wild-type C57Bl/6J mice
Sequence (O35678 whole entry): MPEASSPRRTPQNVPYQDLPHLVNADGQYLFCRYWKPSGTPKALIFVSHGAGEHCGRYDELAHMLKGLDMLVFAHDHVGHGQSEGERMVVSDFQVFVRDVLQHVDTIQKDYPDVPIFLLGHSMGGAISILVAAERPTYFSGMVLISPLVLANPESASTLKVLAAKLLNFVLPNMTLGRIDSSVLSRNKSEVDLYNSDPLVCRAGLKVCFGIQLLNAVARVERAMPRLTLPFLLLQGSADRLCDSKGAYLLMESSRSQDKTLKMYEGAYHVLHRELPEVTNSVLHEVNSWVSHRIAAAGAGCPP
Test: In vivo MAGL inhibition in mouse brain proteomes after oral gavage
Settings: 5 mg/kg oral gavage, 4 h after administration, read-out: MAGL % inh. 5 mg/kg (mouse)
Please respond with reported inhibition at 5 mg/kg for every item in the list.
Your answer should be a plain number; it is taken to be in %.

Exercise: Tell us which inhibition at 5 mg/kg value is on record for O=C(Nc1cccnn1)[C@H]1CC12CCN(C(=O)OC(C(F)(F)F)C(F)(F)F)CC2
Solution: 100

Exercise: Tell us which inhibition at 5 mg/kg value is on record for O=C(Nc1ccncc1)C1CC12CCN(C(=O)OC(C(F)(F)F)C(F)(F)F)CC2 (single isomer, unassigned)
Solution: 90

Exercise: Tell us which inhibition at 5 mg/kg value is on record for CN(C(=O)C1CC12CCN(C(=O)OC(C(F)(F)F)C(F)(F)F)CC2)c1cccnc1 (single isomer, unassigned)
Solution: 100

Exercise: Tell us which inhibition at 5 mg/kg value is on record for O=C(Nc1ccnnc1)C1CC12CCN(C(=O)OC(C(F)(F)F)C(F)(F)F)CC2 (single isomer, unassigned)
Solution: 75

Exercise: Tell us which inhibition at 5 mg/kg value is on record for O=C(NCC1CCOCC1)[C@H]1CC12CCN(C(=O)OC(C(F)(F)F)C(F)(F)F)CC2 (single isomer, unassigned)
Solution: 100

Exercise: Tell us which inhibition at 5 mg/kg value is on record for O=C(Nc1cccnc1)[C@H]1CC12CCN(C(=O)OC(C(F)(F)F)C(F)(F)F)CC2 (single isomer, unassigned)
Solution: 100

Exercise: Tell us which inhibition at 5 mg/kg value is on record for Cc1ncc(NC(=O)C2CC23CCN(C(=O)OC(C(F)(F)F)C(F)(F)F)CC3)cn1 (single isomer, unassigned)
Solution: 50

Exercise: Tell us which inhibition at 5 mg/kg value is on record for Cc1cnc(NC(=O)C2CC23CCN(C(=O)OC(C(F)(F)F)C(F)(F)F)CC3)cn1 (single isomer, unassigned)
Solution: 75

Exercise: Tell us which inhibition at 5 mg/kg value is on record for O=C(Nc1cncc(F)c1)C1CC12CCN(C(=O)OC(C(F)(F)F)C(F)(F)F)CC2 (single isomer, unassigned)
Solution: 100

Exercise: Tell us which inhibition at 5 mg/kg value is on record for CC1(NC(=O)C2CC23CCN(C(=O)OC(C(F)(F)F)C(F)(F)F)CC3)CCOCC1 (single isomer, unassigned)
Solution: 100

Exercise: Tell us which inhibition at 5 mg/kg value is on record for O=C(Nc1cncnc1)C1CC12CCN(C(=O)OC(C(F)(F)F)C(F)(F)F)CC2 (single isomer, unassigned)
Solution: 100

Exercise: Tell us which inhibition at 5 mg/kg value is on record for Cc1ccc(NC(=O)C2CC23CCN(C(=O)OC(C(F)(F)F)C(F)(F)F)CC3)cn1 (single isomer, unassigned)
Solution: 25

Exercise: Tell us which inhibition at 5 mg/kg value is on record for O=C(Nc1cccnn1)[C@@H]1CC12CCN(C(=O)OC(C(F)(F)F)C(F)(F)F)CC2
Solution: 0
